test system: mouse L929 fibroblast; test: Cell viability assay (MTT), L929; format: cell-based; settings: concentration for 30% proliferation inhibition, 24 h
assay_endpoint: CC30 L929

IN: I'd like to know its CC30 L929. The molecule in question is C/C(=N\Nc1nc(-c2ccc(I)cc2)cs1)c1ccc(Nc2nc(N)nc(N)n2)cc1
OUT: >125.0 µg/mL

IN: I'd like to know its CC30 L929. The molecule in question is C/C(=N\Nc1nc(-c2ccc([N+](=O)[O-])cc2)cs1)c1ccc(Nc2nc(N)nc(N)n2)cc1
OUT: >125.0 µg/mL

IN: I'd like to know its CC30 L929. The molecule in question is C/C(=N\Nc1nc(-c2ccc3[nH]c(=O)oc3c2)cs1)c1ccc(Nc2nc(N)nc(N)n2)cc1
OUT: >62.5 µg/mL

IN: I'd like to know its CC30 L929. The molecule in question is C/C(=N\Nc1nc(-c2ccc(F)cc2)cs1)c1ccc(Nc2nc(N)nc(N)n2)cc1
OUT: >125.0 µg/mL

IN: I'd like to know its CC30 L929. The molecule in question is C/C(=N\Nc1nc(-c2ccc(C)cc2)cs1)c1ccc(Nc2nc(N)nc(N)n2)cc1
OUT: >125.0 µg/mL

IN: I'd like to know its CC30 L929. The molecule in question is CC(=O)Nc1ccc(-c2csc(N/N=C(\C)c3ccc(Nc4nc(N)nc(N)n4)cc3)n2)cc1
OUT: >125.0 µg/mL

IN: I'd like to know its CC30 L929. The molecule in question is C/C(=N\Nc1nc(-c2ccc(Br)cc2)cs1)c1ccc(Nc2nc(N)nc(N)n2)cc1
OUT: >125.0 µg/mL

IN: I'd like to know its CC30 L929. The molecule in question is C/C(=N\Nc1nc(-c2cc3ccccc3oc2=O)cs1)c1ccc(Nc2nc(N)nc(N)n2)cc1
OUT: >125.0 µg/mL

IN: I'd like to know its CC30 L929. The molecule in question is C/C(=N\NC(N)=S)c1ccc(Nc2nc(N)nc(N)n2)cc1
OUT: >125.0 µg/mL

IN: I'd like to know its CC30 L929. The molecule in question is C/C(=N\Nc1nc(-c2ccc(NS(C)(=O)=O)cc2)cs1)c1ccc(Nc2nc(N)nc(N)n2)cc1
OUT: >125.0 µg/mL

IN: I'd like to know its CC30 L929. The molecule in question is C/C(=N\Nc1nc(-c2ccccc2)cs1)c1ccc(Nc2nc(N)nc(N)n2)cc1
OUT: >125.0 µg/mL

IN: I'd like to know its CC30 L929. The molecule in question is C/C(=N\Nc1nc(-c2ccc(Cl)cc2)cs1)c1ccc(Nc2nc(N)nc(N)n2)cc1
OUT: >125.0 µg/mL

IN: I'd like to know its CC30 L929. The molecule in question is C/C(=N\Nc1nc(-c2ccc(Cl)c(Cl)c2)cs1)c1ccc(Nc2nc(N)nc(N)n2)cc1
OUT: >62.5 µg/mL

The origin of these recorded values is paper PMC5854716.
